Documented logP (HCOOH) across a set of compounds
Protocol: logP (HCOOH)
Assay type: physicochemical
Experimental Conditions: Table 2
Reported Endpoint: logP (HCOOH)

> print(dat)
                                   compound  reported.endpoint  result.number
1  O=C(Nc1c(NC2CC2)ncnc1-c1ccc(Cl)cc1)c1c(F)cccc1Cl       logP (HCOOH)           2.20
2  O=C(Nc1c(NC2CC2)ncnc1-c1ccc(F)cc1)c1cccnc1Cl       logP (HCOOH)           1.27
3  COc1ncccc1C(=O)Nc1c(NC2CC2)ncnc1-c1ccc(Cl)cc1       logP (HCOOH)           1.83
4  CC(C)c1ncccc1C(=O)Nc1c(NC2CC2)ncnc1-c1ccc(C(F)(F)F)cc1       logP (HCOOH)           2.02
5  CCc1cccc(C)c1C(=O)Nc1c(NC2CC2)ncnc1-c1ccc(F)cc1       logP (HCOOH)           2.39
6  CCc1ncccc1C(=O)Nc1c(NC(C)(C)C)ncnc1-c1ccc(OC(F)(F)F)cc1       logP (HCOOH)           2.32
7  CCc1nccc(Cl)c1C(=O)Nc1c(NC2CC2)ncnc1-c1ccc(F)cc1       logP (HCOOH)           2.18
8  CC(Nc1ncnc(-c2ccc(OC(F)(F)F)cc2)c1NC(=O)c1cccnc1Cl)C1CC1 (stereo not drawn)       logP (HCOOH)           2.44
9  CCc1ncccc1C(=O)Nc1c(NC2CC2)nc(C)nc1-c1ccc(OC(F)(F)F)cc1       logP (HCOOH)           1.44

* * *

Protocol: logP (HCOOH)
Assay type: physicochemical
Experimental Conditions: Table 2
Reported Endpoint: logP (HCOOH)

> print(dat)
                                   compound  reported.endpoint  result.number
1  CCc1ncccc1C(=O)Nc1c(NC2CCC2)ncnc1-c1ccc(F)cc1       logP (HCOOH)           1.36
2  Cc1nc(NC2CC2)c(NC(=O)c2cccnc2C)c(-c2ccc(C(F)(F)F)cc2)n1       logP (HCOOH)           1.27
3  O=C(Nc1c(NC2CC2)ncnc1-c1ccc(C(F)(F)F)cc1)c1cccnc1C(F)(F)F       logP (HCOOH)           2.19
4  CCc1ncccc1C(=O)Nc1c(NC(C)C2CC2)ncnc1-c1ccc(C#N)cc1 (stereo not drawn)       logP (HCOOH)           1.67
5  CCc1ncccc1C(=O)Nc1c(NC2CC2)ncnc1-c1ccc(Cn2nc(C(F)(F)F)nc2C(F)(F)F)cc1       logP (HCOOH)           2.07
6  CCc1ncccc1C(=O)Nc1c(NC(C)C2CC2)ncnc1-c1ccc(F)cc1 (stereo not drawn)       logP (HCOOH)           1.47

* * *

Protocol: logP (HCOOH)
Format: physicochemical
Experimental Conditions: Table 2
Label yes when logP (HCOOH) is at or above 2; otherwise label no.

> print(dat)
                                    molecule  category.label
 1  CCc1ncccc1C(=O)Nc1c(NC2CC2)nc(SC)nc1-c1ccc(Cn2cnc(C(F)(F)C(F)(F)F)n2)cc1             yes
 2  O=C(Nc1c(NC2CC2)ncnc1-c1ccc(C(F)(F)F)cc1)c1ccccc1Cl             yes
 3  CCc1cccc(Cl)c1C(=O)Nc1c(NC2CC2)ncnc1-c1ccc(C#N)cc1             yes
 4   O=C(Nc1c(NC2CC2)ncnc1-c1ccccc1)c1cccnc1              no
 5  CC(C)Oc1ncccc1C(=O)Nc1c(NC2CC2)ncnc1-c1ccc(F)cc1             yes
 6  O=C(Nc1c(NC(C2CC2)C2CC2)ncnc1-c1ccc(OC(F)(F)F)cc1)c1cccnc1Cl             yes
 7  O=C(Nc1c(NC2CC2)ncnc1-c1ccc(Cl)cc1)c1cccnc1Cl              no
 8  COc1ncccc1C(=O)Nc1c(NC2CC2)ncnc1-c1ccc(OC(F)(F)F)cc1             yes
 9  CCc1ncccc1C(=O)Nc1c(NC2CC2)ncnc1-c1ccc(F)cc1              no
10  CCc1ncccc1C(=O)Nc1c(NC(C)(C)C)ncnc1-c1ccc(F)cc1              no
11  O=C(Nc1c(NC2CC2)ncnc1-c1ccc(OC(F)(F)F)cc1)c1cccnc1OCC(F)(F)F             yes
12  CCc1ncccc1C(=O)Nc1c(NC2CC2)ncnc1-c1ccc(Cn2cnc(C(F)(F)F)n2)cc1              no
13  CCc1ncccc1C(=O)Nc1c(NC(C)(C)C)ncnc1-c1ccc(Cl)cc1Cl              no
14  CCc1ncccc1C(=O)Nc1c(NC(C)C2(Cl)CC2)ncnc1-c1ccc(C#N)cc1 (stereo not drawn)             yes
15  O=C(Nc1c(NC2CC2)ncnc1-c1ccc(Cl)cc1)c1cc(Cl)cnc1C1CC1             yes
16  O=C(Nc1c(NC2CC2)ncnc1-c1ccc(C(F)(F)F)cc1)c1cccnc1Cl              no
17  CCc1ncccc1C(=O)Nc1c(NC2CC2C)ncnc1-c1ccc(Cl)cc1F (stereo not drawn)              no
18  CCc1ncccc1C(=O)Nc1c(NC2CC2)ncnc1-c1ccc(Cl)cc1C              no
19  CCc1ncccc1C(=O)Nc1c(NC(C)C(F)(F)F)ncnc1-c1ccc(F)cc1 (stereo not drawn)              no
20  O=C(Nc1c(NC2CC2)ncnc1-c1ccc(F)cc1)c1cccnc1C(F)C(F)(F)F (stereo not drawn)              no
21  O=C(Nc1c(NC2CC2)ncnc1-c1ccc(OC(F)(F)F)cc1)c1ccccc1Cl             yes
22  CCc1ccccc1C(=O)Nc1c(NC2CC2)ncnc1-c1ccc(C(F)(F)F)cc1             yes
